Cited source: the supplement of paper PMC7877785

experiment: self-splicing fitness, log relative to wild type (ln ratio); higher = more splicing; Tetrahymena group I intron in knt gene, E. coli kanamycin selection, DiMSum; sequences stand for … in CUCUCU…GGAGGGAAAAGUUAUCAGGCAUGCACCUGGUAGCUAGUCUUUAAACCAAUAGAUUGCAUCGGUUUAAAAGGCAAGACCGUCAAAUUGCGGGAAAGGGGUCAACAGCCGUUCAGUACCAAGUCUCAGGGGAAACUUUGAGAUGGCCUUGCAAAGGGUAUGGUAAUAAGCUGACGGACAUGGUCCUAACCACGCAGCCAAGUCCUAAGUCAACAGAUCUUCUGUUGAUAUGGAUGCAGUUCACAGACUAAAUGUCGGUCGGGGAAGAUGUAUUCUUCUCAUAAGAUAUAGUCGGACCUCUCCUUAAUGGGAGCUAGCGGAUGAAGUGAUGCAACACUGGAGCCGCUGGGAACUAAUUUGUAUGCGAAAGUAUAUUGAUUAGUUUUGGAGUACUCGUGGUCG; conditions: 30 °C;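 further: selection with 25 µg/mL kanamycin versus none on LB agar overnight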
Entry flag: Criterion met if self-splicing fitness (ln) reaches -3; Criterion not met if it does not.

Some solved entries appear below for comparison.
Prompt: self-splicing fitness (ln) >= -3 for UUACAGCAAUAUUACGCGGC ?
Response: Criterion met

Prompt: self-splicing fitness (ln) >= -3 for UCGUAGCAAUAUUACGGUCG ?
Response: Criterion met

Prompt: self-splicing fitness (ln) >= -3 for CCUCAGCAAUAUUACGUAGA ?
Response: Criterion not met

Consider the record given below.
Prompt: self-splicing fitness (ln) >= -3 for UCGAAGCAAUAUUACGUACA ?
Response: Criterion met
